experimental.target: T1, monomeric cynomolgus LTBR ECD (S28-M227) Fc fusion avi biotinylated (P1AE4411) (cynomolgus, UniProt P0DOX5 223-449 = IgG part, biotinylated avi tag)
T1 construct: also called cyno LTBR
assay.protocol: SPR, IgG captured;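 note: rate constants and KD obtained by fitting double-referenced sensorgrams to a 1:1 Langmuir binding model, with dissociation followed for 600 s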
parameter: kon
Form field: result (number plus unit)

Looking up P1AE9459 (antibody, human IgG1, kappa, L234A L235A, V domains shown, human IgG1 PG LALA; from transgenic rabbit immunization) VH: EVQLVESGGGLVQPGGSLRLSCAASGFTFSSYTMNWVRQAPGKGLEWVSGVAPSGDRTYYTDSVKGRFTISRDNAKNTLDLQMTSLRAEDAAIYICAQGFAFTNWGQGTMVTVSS VL: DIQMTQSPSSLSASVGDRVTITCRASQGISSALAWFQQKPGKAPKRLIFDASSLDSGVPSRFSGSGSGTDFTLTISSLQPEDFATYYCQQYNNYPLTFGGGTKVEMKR , I found its kon recorded as 641000 M⁻¹ s⁻¹
